Protocol: Cytotoxicity against African green monkey Vero cells assessed as reduction in cell viability after 72 hrs by crystal violet staining based assay
Cond: chlorocebus sabaeus
Endpoint Label: CC50 at 72 h (µM)

>>> print(df.to_string())
                                 mol_smiles  endpoint_label  reported
0             C#CCOc1ccc(/C=N/NC(N)=S)cc1OC    CC50 at 72 h       828
1  C/C(=N/NC(N)=S)c1ccc(OCc2cn(CC(=O)c3ccc(Br)cc3)nn2)cc1    CC50 at 72 h       509

----------
Overview of recorded selectivity ratio for various compounds
Protocol: Selectivity index, ratio of CC50 African green monkey Vero cells to IC50 for promastigote form of Leishmania major
Type: toxicity
Cond: Vero cells versus Leishmania major promastigotes, read-out: Ratio CC50/IC50
Endpoint Label: selectivity ratio

                                 mol_smiles  reported
0             C#CCOc1ccc(/C=N/NC(N)=S)cc1OC      3640
1  C/C(=N/NC(N)=S)c1ccc(OCc2cn(CC(=O)c3ccc(Br)cc3)nn2)cc1      3630
